src = ChEMBL document CHEMBL1140203

molecular target: Thromboxane A2 receptor (Homo sapiens, UniProt P21731)
Sequence (P21731 whole entry): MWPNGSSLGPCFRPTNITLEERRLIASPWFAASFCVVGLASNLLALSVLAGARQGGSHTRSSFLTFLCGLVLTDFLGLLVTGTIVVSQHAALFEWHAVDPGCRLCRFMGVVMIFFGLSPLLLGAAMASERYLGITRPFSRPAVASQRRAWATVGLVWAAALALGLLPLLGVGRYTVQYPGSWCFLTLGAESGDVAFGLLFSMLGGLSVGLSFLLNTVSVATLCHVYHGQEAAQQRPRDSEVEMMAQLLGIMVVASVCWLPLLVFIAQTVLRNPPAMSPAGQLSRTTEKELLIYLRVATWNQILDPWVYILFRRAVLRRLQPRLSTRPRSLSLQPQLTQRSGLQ
value-type: IC50 (nM)
Write the answer as a number in nM, unit excluded.

Entry CCCCC[C@H](O)/C=C/[C@H]1C2COC(C2)[C@@H]1C/C=C\CCCC(=O)O (stereo partly specified) : reported IC50 = ?
37

###

target: Histamine H3 receptor (Homo sapiens, UniProt Q9Y5N1)
Sequence (Q9Y5N1 whole entry): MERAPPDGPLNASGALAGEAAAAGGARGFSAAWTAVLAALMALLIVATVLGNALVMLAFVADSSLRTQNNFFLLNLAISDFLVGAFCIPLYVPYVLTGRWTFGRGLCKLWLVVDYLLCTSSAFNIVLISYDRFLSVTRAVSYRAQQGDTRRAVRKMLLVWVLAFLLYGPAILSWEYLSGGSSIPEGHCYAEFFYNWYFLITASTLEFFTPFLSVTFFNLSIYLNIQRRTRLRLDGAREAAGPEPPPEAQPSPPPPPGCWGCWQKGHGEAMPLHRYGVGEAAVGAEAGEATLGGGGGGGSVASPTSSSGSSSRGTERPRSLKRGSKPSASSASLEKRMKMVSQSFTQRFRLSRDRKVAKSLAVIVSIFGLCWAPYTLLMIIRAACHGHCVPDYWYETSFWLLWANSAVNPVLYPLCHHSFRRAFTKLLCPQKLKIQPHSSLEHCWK
value-type: Ki (nM)
Write the answer as a number in nM, unit excluded.

Entry Nc1nc2c(c(N3CCNCC3)n1)CCC1=C2[C@@H]2CCCC[C@@H]2O1 (relative stereo) : reported Ki = ?
933

###

test: in vivo; conditions: Sprague-Dawley, rat, ip, 10 mg/kg
value-type: bioavailability (%)
Write the answer as a number in %, unit excluded.

Entry Nc1nc2c(c(N3CCNCC3)n1)CCC1=C2[C@@H]2CCCC[C@@H]2O1 (relative stereo) : reported bioavailability = ?
72
